Tested on: Saccharomyces cerevisiae;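 note: PSI is a weighted mean of sequencing reads over stability bins, variants kept only with over 10 reads, mCherry proximal and sfGFP distal, peptide attached via GGGS linker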
Assay: protein stability index of tFT-peptide fusion (C-terminal peptide) (PSI (0-1 scale)); higher = more stable (slower turnover)
Settings: genetic background: wild type; temperature: 30 C
Binned protein stability index; ranges: category 1: < 0.6; category 2: ≥ 0.6 and < 0.7; category 3: ≥ 0.7

>  <SEQ TEXT>
FVRVFLRLGVVS

>  <CLASS LABEL>
category 1

$$$$
>  <SEQ TEXT>
PRPPPPRPRSSP

>  <CLASS LABEL>
category 2

$$$$
>  <SEQ TEXT>
VSVLCADGVLRM

>  <CLASS LABEL>
category 3

$$$$
>  <SEQ TEXT>
LYYSVIFLFLSW

>  <CLASS LABEL>
category 1

$$$$
>  <SEQ TEXT>
PPPPPAPPPVSI

>  <CLASS LABEL>
category 2

$$$$
>  <SEQ TEXT>
RVRWLRGVPGGL

>  <CLASS LABEL>
category 2

$$$$
>  <SEQ TEXT>
RPSHPPHLPPPV

>  <CLASS LABEL>
category 2

$$$$
>  <SEQ TEXT>
GTLFKEGSRVTL

>  <CLASS LABEL>
category 2

$$$$
>  <SEQ TEXT>
RNKIWCTVIMRL

>  <CLASS LABEL>
category 1

$$$$
>  <SEQ TEXT>
PPPPPPFLPRLP

>  <CLASS LABEL>
category 3

$$$$
